- target.system: Amyloid-beta precursor protein (Homo sapiens, UniProt P05067)
- Sequence (P05067 whole entry): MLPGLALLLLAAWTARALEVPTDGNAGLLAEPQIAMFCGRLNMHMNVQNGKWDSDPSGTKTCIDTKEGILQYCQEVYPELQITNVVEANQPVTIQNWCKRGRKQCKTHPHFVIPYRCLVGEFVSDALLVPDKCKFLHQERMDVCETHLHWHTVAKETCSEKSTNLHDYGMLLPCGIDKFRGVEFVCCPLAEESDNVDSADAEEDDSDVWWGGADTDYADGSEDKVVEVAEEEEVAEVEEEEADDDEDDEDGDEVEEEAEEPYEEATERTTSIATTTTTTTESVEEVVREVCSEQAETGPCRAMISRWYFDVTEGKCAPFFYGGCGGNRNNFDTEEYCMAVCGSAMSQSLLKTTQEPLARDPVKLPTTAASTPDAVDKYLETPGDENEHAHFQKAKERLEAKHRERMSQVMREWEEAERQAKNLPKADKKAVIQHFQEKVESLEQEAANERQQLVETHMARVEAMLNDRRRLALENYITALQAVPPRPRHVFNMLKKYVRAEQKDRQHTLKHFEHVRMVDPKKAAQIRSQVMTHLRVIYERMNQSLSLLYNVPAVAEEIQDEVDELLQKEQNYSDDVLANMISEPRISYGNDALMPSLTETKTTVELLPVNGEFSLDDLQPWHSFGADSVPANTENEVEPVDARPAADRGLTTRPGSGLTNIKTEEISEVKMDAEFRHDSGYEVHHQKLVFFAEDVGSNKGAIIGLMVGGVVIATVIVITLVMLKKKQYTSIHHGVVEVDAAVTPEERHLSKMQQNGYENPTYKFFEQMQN
- assay: Inhibition of human biotinylated amyloid beta (1 to 42) oligomerization assessed as decrease in oligomer abundance measured after 1 hr by ELISA
- measurement.parameters: read-out: IC50
pIC50: −log10 of the molar value.
reported.metric: pIC50

Would you please look over these solved cases?
COc1ccc(CNC(=O)[C@@H]2CCCN2C(=O)/C=C/c2ccc(OCc3ccccc3)c(OC)c2)cc1 ... 4.72
COc1cc(/C=C/C(=O)N2CC(F)(F)C2)ccc1OCc1ccccc1 ... 3.97
COc1cc([C@H]2C[C@@H]2C(=O)N2CCCCC2)ccc1OCc1ccccc1 ... 4.73
COc1ccc(CNC(=O)CCNC(=O)/C=C/c2ccc(OCc3ccccc3)c(OC)c2)cc1 ... 4.27
CCN(CC)C(=O)/C=C/c1ccc(OS(=O)(=O)c2ccc(C)cc2)c(OC)c1 ... 4.97

a = COc1cc(/C=C/C(=O)N2CCC[C@H]2C(=O)NCc2ccccc2)ccc1OCc1ccccc1
b = CCN(CC)C(=O)CCc1ccc(OCc2ccccc2)c(OC)c1
c = COc1cc(/C=C/C(=O)N(C)OC)ccc1OCc1ccccc1
d = COc1cc(/C=C/CN2CCCCC2)ccc1OCc1ccccc1
e = COc1cc(/C=C/C(=O)O)ccc1O [FERULATE]
Query block: Sort entries by pIC50 from minimum to maximum value. Please write the labels in the order that was asked for.
Result block: e, c, b, a, d
(e: 3.65, c: 4.10, b: 4.46, a: 4.73, d: 4.97)
